Test system: PAMPA
reported.conditions: Papp (x 10^-6 cm/s) – UV Detection / [row 21]; UV Detection
result.type: Papp (×10⁻⁶ cm/s)
Number only, in ×10⁻⁶ cm/s; omit the unit.

Entry CCCCC[C@@H]1OC(=O)[C@@H](C)N(C)C(=O)[C@H](CCCCC)OC(=O)[C@@H](C)N(C)C(=O)[C@H](CCCCC)OC(=O)[C@@H](C)N(C)C(=O)[C@H](CCCCC)OC(=O)[C@@H](C)N(C)C1=O [Compound C1.4, ent-verticilide] — recorded Papp = 6.77

----------
Test system: PAMPA
reported.conditions: Papp (x 10^-6 cm/s) – ELSD Detection / [row 5]; ELSD Detection
Can you tell me Papp for the items I'm about to list?
Remember to quote the unit after the number.

Entry CCCCC[C@@H]1OC(=O)[C@@H](C)N(C)C(=O)[C@H](CCCCC)OC(=O)[C@@H](C)N(C)C(=O)[C@H](CCCCC)OC(=O)[C@@H](C)N(C)C(=O)[C@H](CCCCC)OC(=O)[C@@H](C)N(C)C1=O [Compound C1.4, ent-verticilide] — recorded Papp = 4.99 ×10⁻⁶ cm/s

Entry CCCCC[C@@H]1OC(=O)[C@@H](C)N(C)C(=O)[C@H](CCCCC)OC(=O)[C@@H](C)N(C)C(=O)[C@H](CCCCC)OC(=O)[C@@H](C)N(C)C(=O)[C@H](CCCCC)OC(=O)[C@@H](C)N(C)C(=O)[C@H](CCCCC)OC(=O)[C@@H](C)N(C)C1=O — recorded Papp = 3.09 ×10⁻⁶ cm/s

Entry CCCCC[C@@H]1OC(=O)[C@@H](C)N(C)C(=O)[C@H](CCCCC)OC(=O)[C@@H](C)N(C)C(=O)[C@H](CCCCC)OC(=O)[C@@H](C)N(C)C1=O [Compound C1.3, ent-verticilide B1] — recorded Papp = 4.45 ×10⁻⁶ cm/s

Entry CCCCC[C@@H]1OC(=O)[C@@H](C)N(C)C(=O)[C@H](CCCCC)OC(=O)[C@@H](C)N(C)C(=O)[C@H](CCCCC)OC(=O)[C@@H](C)N(C)C(=O)[C@H](CCCCC)OC(=O)[C@@H](C)N(C)C(=O)[C@H](CCCCC)OC(=O)[C@@H](C)N(C)C(=O)[C@H](CCCCC)OC(=O)[C@@H](C)N(C)C1=O — recorded Papp = 1.89 ×10⁻⁶ cm/s

Entry CCCCC[C@@H]1OC(=O)[C@@H](C)N(C)C1=O — recorded Papp = 15 ×10⁻⁶ cm/s

Entry CCCCC[C@@H]1OC(=O)[C@@H](C)N(C)C(=O)[C@H](CCCCC)OC(=O)[C@@H](C)N(C)C1=O — recorded Papp = 4.34 ×10⁻⁶ cm/s

----------
Test system: PAMPA
reported.conditions: Acceptor Concentration (uM) / experiment 9; UV detection; initial concentration 500 uM
Can you tell me Acceptor Concentration for the items I'm about to list?
Remember to quote the unit after the number.

Known value: PAMPA Acceptor Concentration of the compound CCCCC[C@H](OC(=O)[C@@H](C)N(C)C(=O)[C@H](CCCCC)OC(=O)[C@@H](C)N(C)C(=O)[C@H](CCCCC)OC(=O)[C@@H](C)N(C)C(=O)[C@H](CCCCC)OC(=O)[C@@H](C)N(C)C(=O)[C@H](CCCCC)OC(=O)[C@@H](C)N(C)C(=O)OC(C)(C)C)C(=O)OCc1ccccc1 equals 45.3 µM

Known value: PAMPA Acceptor Concentration of the compound CCCCC[C@H](OC(=O)[C@@H](C)N(C)C(=O)OC(C)(C)C)C(=O)OCc1ccccc1 equals 107 µM

Known value: PAMPA Acceptor Concentration of the compound CCCCC[C@H](OC(=O)[C@@H](C)N(C)C(=O)[C@H](CCCCC)OC(=O)[C@@H](C)N(C)C(=O)OC(C)(C)C)C(=O)OCc1ccccc1 equals 87.3 µM

Known value: PAMPA Acceptor Concentration of the compound CCCCC[C@H](OC(=O)[C@@H](C)N(C)C(=O)[C@H](CCCCC)OC(=O)[C@@H](C)N(C)C(=O)[C@H](CCCCC)OC(=O)[C@@H](C)N(C)C(=O)OC(C)(C)C)C(=O)OCc1ccccc1 equals 81.4 µM

Known value: PAMPA Acceptor Concentration of the compound CCCCC[C@H](OC(=O)[C@@H](C)N(C)C(=O)[C@H](CCCCC)OC(=O)[C@@H](C)N(C)C(=O)[C@H](CCCCC)OC(=O)[C@@H](C)N(C)C(=O)[C@H](CCCCC)OC(=O)[C@@H](C)N(C)C(=O)OC(C)(C)C)C(=O)OCc1ccccc1 equals 59.1 µM

----------
Can you tell me Papp for the items I'm about to list?
System: PAMPA
reported.conditions: Papp (x 10^-6 cm/s) – ELSD Detection / [row 7]; ELSD Detection
Number only, in ×10⁻⁶ cm/s; omit the unit.

Known value: PAMPA Papp of the compound CCCCC[C@@H]1OC(=O)[C@@H](C)N(C)C(=O)[C@H](CCCCC)OC(=O)[C@@H](C)N(C)C(=O)[C@H](CCCCC)OC(=O)[C@@H](C)N(C)C(=O)[C@H](CCCCC)OC(=O)[C@@H](C)N(C)C(=O)[C@H](CCCCC)OC(=O)[C@@H](C)N(C)C1=O [Compound C1.5] equals 3.15

Known value: PAMPA Papp of the compound CCCCC[C@@H]1OC(=O)[C@@H](C)N(C)C(=O)[C@H](CCCCC)OC(=O)[C@@H](C)N(C)C(=O)[C@H](CCCCC)OC(=O)[C@@H](C)N(C)C(=O)[C@H](CCCCC)OC(=O)[C@@H](C)N(C)C1=O [Compound C1.4, ent-verticilide] equals 5.58

Known value: PAMPA Papp of the compound CCCCC[C@@H]1OC(=O)[C@@H](C)N(C)C1=O [Compound C1.1] equals 14.1

Known value: PAMPA Papp of the compound CCCCC[C@@H]1OC(=O)[C@@H](C)N(C)C(=O)[C@H](CCCCC)OC(=O)[C@@H](C)N(C)C(=O)[C@H](CCCCC)OC(=O)[C@@H](C)N(C)C(=O)[C@H](CCCCC)OC(=O)[C@@H](C)N(C)C(=O)[C@H](CCCCC)OC(=O)[C@@H](C)N(C)C(=O)[C@H](CCCCC)OC(=O)[C@@H](C)N(C)C1=O [Compound C1.6] equals 1.88

Known value: PAMPA Papp of the compound CCCCC[C@@H]1OC(=O)[C@@H](C)N(C)C(=O)[C@H](CCCCC)OC(=O)[C@@H](C)N(C)C1=O [Compound C1.2] equals 4.88

----------
reported.conditions: Well 4 / %T; Well 4; calculated using Supplement Equation 1; UV detection
result.type: %T (%)
Number only, in %; omit the unit.

Entry CCCCC[C@H](OC(=O)[C@@H](C)N(C)C(=O)[C@H](CCCCC)OC(=O)[C@@H](C)N(C)C(=O)[C@H](CCCCC)OC(=O)[C@@H](C)N(C)C(=O)[C@H](CCCCC)OC(=O)[C@@H](C)N(C)C(=O)[C@H](CCCCC)OC(=O)[C@@H](C)N(C)C(=O)[C@H](CCCCC)OC(=O)[C@@H](C)N(C)C(=O)OC(C)(C)C)C(=O)OCc1ccccc1 — recorded %T = 0.41

----------
Test system: PAMPA
reported.conditions: Papp (x 10^-6 cm/s) – ELSD Detection / [row 4]; ELSD Detection
result.type: Papp (nm/s)
Number only, in nm/s; omit the unit.

Entry CCCCC[C@@H]1OC(=O)[C@@H](C)N(C)C(=O)[C@H](CCCCC)OC(=O)[C@@H](C)N(C)C(=O)[C@H](CCCCC)OC(=O)[C@@H](C)N(C)C(=O)[C@H](CCCCC)OC(=O)[C@@H](C)N(C)C(=O)[C@H](CCCCC)OC(=O)[C@@H](C)N(C)C1=O [Compound C1.5] — recorded Papp = 27.8

Entry CCCCC[C@@H]1OC(=O)[C@@H](C)N(C)C(=O)[C@H](CCCCC)OC(=O)[C@@H](C)N(C)C1=O [Compound C1.2] — recorded Papp = 48.3

Entry CCCCC[C@@H]1OC(=O)[C@@H](C)N(C)C(=O)[C@H](CCCCC)OC(=O)[C@@H](C)N(C)C(=O)[C@H](CCCCC)OC(=O)[C@@H](C)N(C)C(=O)[C@H](CCCCC)OC(=O)[C@@H](C)N(C)C(=O)[C@H](CCCCC)OC(=O)[C@@H](C)N(C)C(=O)[C@H](CCCCC)OC(=O)[C@@H](C)N(C)C1=O [Compound C1.6] — recorded Papp = 18.7

----------
Can you tell me Papp for the items I'm about to list?
Test system: PAMPA
reported.conditions: Papp (x 10^-6 cm/s) / [row 5]; UV detection
Starred links: 1 amine or outer side, 2 acyl side, 3 side chain; linkers in the order of their positions; H or OH if unused. Non-standard residues stand in square brackets, D forms with d. Residues, ends and D or L forms follow the SMILES beside them. *: point of attachment. X2 = CCCCC[C@H](O*)C(=O)OCc1ccccc1; X1 = CCCCC[C@H](O[*:1])C(=O)[*:2]; Ahp(2) = CCCCC[C@H](N)C(=O)O; dNMeA = CN[C@H](C)C(=O)O; Boc = CC(C)(C)OC(=O)*; OBn = c1ccc(CO*)cc1
Number only, in ×10⁻⁶ cm/s; omit the unit.

Entry CCCCC[C@H](NC(=O)[C@@H](C)N(C)C(=O)OC(C)(C)C)C(=O)N(C)[C@H](C)C(=O)O[C@@H](CCCCC)C(=O)N(C)[C@H](C)C(=O)O[C@@H](CCCCC)C(=O)N(C)[C@H](C)C(=O)O[C@@H](CCCCC)C(=O)OCc1ccccc1 [Compound L2.1] (Boc-[dNMeA][Ahp(2)][dNMeA][X1][dNMeA][X1][dNMeA]-X2) — recorded Papp = 4.01

Entry CCCCC[C@H](NC(=O)[C@@H](C)N(C)C(=O)OC(C)(C)C)C(=O)N(C)[C@H](C)C(=O)N[C@H](CCCCC)C(=O)N(C)[C@H](C)C(=O)O[C@@H](CCCCC)C(=O)N(C)[C@H](C)C(=O)O[C@@H](CCCCC)C(=O)OCc1ccccc1 (stereo in doubt) — recorded Papp = 2.54

Entry CCCCC[C@H](NC(=O)[C@@H](C)N(C)C(=O)[C@H](CCCCC)NC(=O)[C@@H](C)N(C)C(=O)[C@H](CCCCC)NC(=O)[C@@H](C)N(C)C(=O)[C@H](CCCCC)NC(=O)[C@@H](C)N(C)C(=O)OC(C)(C)C)C(=O)OCc1ccccc1 [Compound L2.5] (Boc-[dNMeA][Ahp(2)][dNMeA][Ahp(2)][dNMeA][Ahp(2)][dNMeA][Ahp(2)]-OBn) — recorded Papp = 2.68

Entry CCCCC[C@H](NC(=O)[C@@H](C)N(C)C(=O)[C@H](CCCCC)OC(=O)[C@@H](C)N(C)C(=O)[C@H](CCCCC)NC(=O)[C@@H](C)N(C)C(=O)[C@H](CCCCC)OC(=O)[C@@H](C)N(C)C(=O)OC(C)(C)C)C(=O)OCc1ccccc1 [Compound L2.3] (Boc-[dNMeA][X1][dNMeA][Ahp(2)][dNMeA][X1][dNMeA][Ahp(2)]-OBn) — recorded Papp = 3.88

Entry CCCCC[C@H](OC(=O)[C@@H](C)N(C)C(=O)[C@H](CCCCC)OC(=O)[C@@H](C)N(C)C(=O)[C@H](CCCCC)OC(=O)[C@@H](C)N(C)C(=O)[C@H](CCCCC)OC(=O)[C@@H](C)N(C)C(=O)OC(C)(C)C)C(=O)OCc1ccccc1 — recorded Papp = 2.24
